# ASSAYED_SYSTEM: ScBbc1
# PROCEDURE_DETAILS: SPOT peptide array binding signal intensity (averaged, normalized) (arbitrary units (background-subtracted, floor 0; scale differs between SH3 domains)); higher = stronger binding of the SH3 domain to the peptide
# SPOT peptide array binding signal intensity per entry
I'd appreciate a reply containing only the number, no unit.

Observe how each entry below is paired with its result.
> print(dat)
            binder  readout.number
1  NRPAIRIPSLKKPAL            9.25
2  VNFRRIPTGPDSPPT               2

Given the binder "IRMPSNPALPKKLLN" , write its reported SPOT peptide array binding signal intensity.
9.5

Given the binder "QQNRPLPQLPNRNNR" , write its reported SPOT peptide array binding signal intensity.
65

Given the binder "KRRTSLFPWLHKPGI" , write its reported SPOT peptide array binding signal intensity.
5.75

Given the binder "DDEDVPPQLPTRTKS" , write its reported SPOT peptide array binding signal intensity.
0.5

Given the binder "FIRKRAPTPPAPSRS" , write its reported SPOT peptide array binding signal intensity.
99

Given the binder "NPNRRAPRRPLSTQH" , write its reported SPOT peptide array binding signal intensity.
185

Given the binder "RPVPPPPPMRTTTEG" , write its reported SPOT peptide array binding signal intensity.
64.8

Given the binder "PLRRTVMSLPGNHDI" , write its reported SPOT peptide array binding signal intensity.
13

Given the binder "VTHRLRISIPGITGR" , write its reported SPOT peptide array binding signal intensity.
16.2
